# Tested on: C. difficile
# test.method.notes: microbe, parasite or virus in culture
# Format: cell-based, Clostridium difficile
Exercise: state measured Minimum Inhibitory Concentration C. difficile ATCC BAA-1874 for each of the molecules provided.
Answer with the value and then the unit.

Minimum Inhibitory Concentration C. difficile ATCC BAA-1874 recorded for this molecule, C=C1NC(=O)[C@H](Cc2c[nH]c3ccccc23)NC(=O)[C@H](NC(=O)[C@H](CCCCN)NC(=O)[C@@H](N)C(C)C)CSC[C@@H](C(=O)N[C@H]2C(=O)N3CCC[C@H]3C(=O)NCC(=O)N[C@H](C(=O)N[C@@H](C)C(=O)N[C@@H](CC(N)=O)C(=O)N/C(=C\C)C(=O)NCC(=O)N[C@@H]3CSC[C@@H]4NC(=O)[C@H](Cc5ccc(O)cc5)NC(=O)[C@@H](CS/C=C\NC4=O)NC(=O)[C@H](CC(N)=O)NC(=O)[C@H](Cc4ccccc4)NC3=O)CS[C@H]2C)NC(=O)[C@H](CC(C)C)NC1=O , is 0.5 µg/mL

Value of Minimum Inhibitory Concentration C. difficile ATCC BAA-1874 reported for the molecule C=C1NC(=O)[C@H](Cc2c[nH]c3ccccc23)NC(=O)[C@H](NC(=O)[C@H](CCCCN)NC(=O)[C@@H](N)[C@@H](C)CC)CSC[C@@H](C(=O)N[C@H]2C(=O)N3CCC[C@H]3C(=O)NCC(=O)N[C@H](C(=O)N[C@@H](C)C(=O)N[C@@H](CC(=O)O)C(=O)N/C(=C\C)C(=O)NCC(=O)N[C@@H]3CSC[C@@H]4NC(=O)[C@H](Cc5ccc(O)cc5)NC(=O)[C@@H](CS/C=C\NC4=O)NC(=O)[C@H](CC(N)=O)NC(=O)[C@H](Cc4ccccc4)NC3=O)CS[C@H]2C)NC(=O)[C@H](CC(C)C)NC1=O is 0.5 µg/mL

What the record says about C=C1NC(=O)[C@H](Cc2c[nH]c3ccccc23)NC(=O)[C@H](NC(=O)[C@H](CCCCN)NC(=O)[C@@H](N)CC(C)C)CSC[C@@H](C(=O)N[C@H]2C(=O)N3CCC[C@H]3C(=O)NCC(=O)N[C@H](C(=O)N[C@@H](C)C(=O)N[C@@H](CC(N)=O)C(=O)N/C(=C\C)C(=O)NCC(=O)N[C@@H]3CSC[C@@H]4NC(=O)[C@H](Cc5ccc(O)cc5)NC(=O)[C@@H](CS/C=C\NC4=O)NC(=O)[C@H](CC(N)=O)NC(=O)[C@H](Cc4ccccc4)NC3=O)CS[C@H]2C)NC(=O)[C@H](CC(C)C)NC1=O : Minimum Inhibitory Concentration C. difficile ATCC BAA-1874 is 0.25 µg/mL

response.value for C=C1NC(=O)[C@H](Cc2c[nH]c3ccccc23)NC(=O)[C@H](NC(=O)[C@H](CCCCN)NC(=O)[C@@H](N)CC(C)C)CSC[C@@H](C(=O)N[C@H]2C(=O)N3CCC[C@H]3C(=O)NCC(=O)N[C@H](C(=O)N[C@@H](C)C(=O)N[C@@H](C)C(=O)N/C(=C\C)C(=O)NCC(=O)N[C@@H]3CSC[C@@H]4NC(=O)[C@H](Cc5ccc(O)cc5)NC(=O)[C@@H](CS/C=C\NC4=O)NC(=O)[C@H](CC(N)=O)NC(=O)[C@H](Cc4ccccc4)NC3=O)CS[C@H]2C)NC(=O)[C@H](CC(C)C)NC1=O (field: Minimum Inhibitory Concentration C. difficile ATCC BAA-1874) = 0.5 µg/mL
